Listing: Complete of selected molecules
system: NCI-H292 lung cancer cells; assay: FDA drug screening, complete media vs cholesterol-free media without statin (TABLE 1); assay type: cell-based, human; settings: NCI-H292 cells, complete media
Structures can show the parent of a compound that is named as a salt.
Form field (numeric): enter value without unit.

Please review the following examples before continuing.
CN1CCN(c2c(F)cc3c(=O)c(C(=O)O)cn4c3c2SCC4)CC1 [Rufloxacin hydrochloride]: 1.016
CCOC(=O)C1=C(C)NC(C)=C(C(=O)OC)C1c1cccc([N+](=O)[O-])c1 (stereo not drawn): 1.208
C[C@H](CCC(=O)NCCS(=O)(=O)O)[C@H]1CC[C@H]2[C@@H]3CC[C@@H]4C[C@H](O)CC[C@]4(C)[C@H]3C[C@H](O)[C@]12C [Taurodeoxycholic acid (sodium hydrate)]: 0.9829
CCCCCOc1ccccc1/C(=C\SC)n1ccnc1 [Neticonazole (hydrochloride)]: 0.8359
CCc1cccc2c3c([nH]c12)C(CC)(CC(=O)O)OCC3 (stereo not drawn): 0.9193

Form field: reported Complete of Cc1c(C(=O)NN2CCCCC2)nn(-c2ccc(Cl)cc2Cl)c1-c1ccc(Cl)cc1 [Rimonabant (Hydrochloride)]
0.882

Form field: reported Complete of C/C=C/C1=C(C(=O)O)N2C(=O)[C@@H](NC(=O)[C@H](N)c3ccc(O)cc3)[C@H]2SC1.O [Cefprozil (monohydrate)]
1.109

Form field: reported Complete of CN1CCOC(c2ccccc2)c2ccccc2C1 (stereo not drawn) [Nefopam (hydrochloride)]
0.9673

Form field: reported Complete of CC(C)CCC[C@@H](C)[C@H]1CC[C@H]2[C@@H]3CC=C4C[C@@H](O)CC[C@]4(C)[C@H]3CC[C@]12C
1.074

Form field: reported Complete of OC(CCN1CCCC1)(c1ccccc1)C1CCCCC1 (stereo not drawn) [Procyclidine (hydrochloride)]
0.997

Form field: reported Complete of CN(C(=O)/C=C/c1ccoc1)[C@@H]1CC[C@@]2(O)[C@H]3Cc4ccc(O)c5c4[C@@]2(CCN3CC2CC2)[C@H]1O5 [Nalfurafine (hydrochloride)]
0.931

Form field: reported Complete of CCCCOc1ccc(OCCCN2CCOCC2)cc1 [Pramocaine (hydrochloride)]
0.9298

Form field: reported Complete of Nc1nc(CC(=O)Nc2ccc(CCNC[C@H](O)c3ccccc3)cc2)cs1
0.7731

Form field: reported Complete of O=C1CN(/N=C/C=C/c2ccc([N+](=O)[O-])o2)C(=O)N1
0.9861

Form field: reported Complete of CC(=O)O[C@H]1C[C@@H]2CC[C@@H]3[C@H](CC[C@@]4(C)[C@H]3C[C@H]([N+]3(C)CCCCC3)[C@@H]4OC(C)=O)[C@@]2(C)C[C@@H]1[N+]1(C)CCCCC1.[Br-].[Br-] [Pancuronium (dibromide)]
0.8678

----------
Listing: Difference of selected molecules
system: NCI-H292 lung cancer cells; test: FDA drug screening, complete media vs cholesterol-free media without statin (TABLE 1); assay type: cell-based, human; details: Complete minus Cholesterol-free; >0 enhanced anti-cancer activity, about 0 neutral, <0 antagonist
Form field (numeric): enter value without unit.

Please review the following examples before continuing.
COc1cc(/C=C/C(=O)O)ccc1O: −0.23
CC[C@@H]1/C=C(\C)C[C@H](C)C[C@H](OC)[C@H]2O[C@@](O)(C(=O)C(=O)N3CCCC[C@H]3C(=O)O[C@H](/C(C)=C/[C@@H]3CC[C@H](Cl)[C@H](OC)C3)[C@H](C)[C@@H](O)CC1=O)[C@H](C)C[C@@H]2OC: −0.26
CC(C)c1c(C(=O)Nc2ccccc2)c(-c2ccccc2)c(-c2ccc(F)cc2)n1CC[C@@H](O)C[C@@H](O)CC(=O)O [atorvastatin, reference compound]: 0.03
C[C@]12CCC(=O)C=C1C=C[C@@H]1[C@@H]2CC[C@@]2(C)[C@H]1CC[C@@]21CCC(=O)O1: −0.20
O=C(O)CCn1c2c(c3ccccc31)C[C@H](NS(=O)(=O)c1ccc(F)cc1)CC2: −0.25

Now consider the entry below.
Form field: reported Difference of O=C(O)c1cc(/N=N/c2ccc(O)c(C(=O)O)c2)ccc1O [Olsalazine (Disodium)]
−0.25
